biological target: PHF1 Tudor domain (residues 25-87), N-terminal His tag (UniProt O43189-1 25-87); assay: ITC
Sequence (O43189 25-87): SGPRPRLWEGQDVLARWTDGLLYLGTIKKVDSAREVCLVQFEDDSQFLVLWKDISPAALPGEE
No end group written: not given here. Me3 = trimethyl (on lysine, Kme3)
measurement-label: pKd
# pKd is unitless: minus log10 of the molar concentration; print number only

VGVK(Me3)KPH-NH2 [H3K36me3 peptide H3(33-39) G33V, VGVKme3KPH] = 4.32
GGVK(Me3)KPH-NH2 [H3K36me3 peptide H3(33-39), GGVKme3KPH] = 4.28

API: the following record is the query input.
Report pKd for GGVK(Me3)KPHR-NH2 [H3K36me3 peptide H3(33-40), GGVKme3KPHR] please.
4.65
